test system: SNB-75 CNS; assay: NCI-60 one-dose screen, 48 h; settings: 10 µM unless noted
About 83,000 compounds went through this panel and 20% of them were active in at least one assay; those are over-represented in the sample as a whole. Activity calls are given as the source filed them. How the source made its calls: active means growth percent below 10; inactive means the rest.
Outcome codes: active, inactive

# COMPOUND, GROUP
rows = [
    ("COc1ccc(Oc2ccc(C3CC(c4cc(OC)c(OC)c(OC)c4)=NN3C(C)=O)cc2)cc1 (configuration not stated)", "inactive"),
    ("COc1ccc(-c2nc3cc(Cl)c(Cl)cc3n2CC(=O)N=Nc2c(O)[nH]c3ccc(Br)cc23)cc1", "inactive"),
    ("COC(=O)[C@@]1(C)CC[C@]2(C)CC[C@]3(C)C(=CC(=O)[C@@H]4[C@@]5(C)Cc6c(n(CC#CCN7CCN(C)CC7)c7ccccc67)C(C)(C)[C@@H]5CC[C@]43C)[C@@H]2C1", "inactive"),
    ("COCCOc1ccc(-c2csc(NC(C)=O)n2)cc1NS(=O)(=O)c1cccc2c(N(C)C)cccc12", "inactive"),
    ("O=C1Nc2cc(OC(F)(F)F)ccc2Oc2ccc(-c3ccnc(N4CCNCC4)c3)cc21", "active"),
    ("CCOC(=O)c1c(NCC(=O)Nc2cccc([N+](=O)[O-])c2)sc2c1CCCC2", "active"),
    ("CCOC(=O)/C=c1\\sc2n(c1=O)C1C(NN=2)N(CC)C(=O)N1CC (configuration not stated)", "inactive"),
    ("CC(C)=CCC[C@](C)(O)[C@H]1CC[C@]2(C)[C@@H]1CC[C@@H]1[C@@]3(C)CCC(NC(=O)c4ccccc4C(=O)O)C(C)(C)[C@@H]3CC[C@]12C (some centres not stated)", "inactive"),
    ("COc1ccccc1/C=C/C=N/NC1=NC2C(S1)N(C)C(=O)N2c1ccccc1 (configuration not stated)", "inactive"),
    ("CC1CCc2c(sc3nc(SCC(=O)N/N=C/c4cccc(O)c4O)n(-c4ccccc4)c(=O)c23)C1 (configuration not stated)", "inactive"),
    ("Nc1nc(-c2cccc([N+](=O)[O-])c2)c(N=Nc2ccccc2[N+](=O)[O-])s1", "active"),
    ("COc1ccc(NC(=O)Cn2cc(CN3C(=O)c4ccc([N+](=O)[O-])cc4C3=O)nn2)cc1", "inactive"),
    ("O=C(CSc1nnc(-c2cccs2)n1-c1ccccc1)Nc1ccc(F)cc1", "inactive"),
    ("CC(=O)Nc1ccc(NC(=O)Nc2cccc(-c3nc(-c4ccc(NC(=O)c5cccs5)cc4Cl)no3)c2)cc1C(F)(F)F", "active"),
    ("O=C(Nc1ccc(-c2nc(-c3cccc(O)c3)c(-c3ccnc(Br)c3)[nH]2)cc1)c1ccccc1", "active"),
    ("CCOC(=O)c1c(Nc2ccccc2)nn2c(-c3ccc(Br)cc3)ccnc12", "inactive"),
    ("CCCCCCNC(=O)Oc1ccc(/C(=C(/C)c2ccc(Cl)cc2)c2ccc(OCCN3CCCC3)cc2)cc1", "inactive"),
]

====

system: NCI-H23 lung; assay: NCI-60 one-dose screen, 48 h; details: 10 µM unless noted
About 83,000 compounds went through this panel and 20% of them were active in at least one assay; those are over-represented in the sample as a whole. Active and inactive are the calls of the source. Rule for the calls: active = growth percent below 10; inactive = the rest.
Outcome codes: YES = active, NO = inactive

# MOLECULE, GROUP
measured = [
    ("CC1(C)CC[C@]2(C(=O)N3CCCN(CC#N)CC3)CC[C@]3(C)C(=CC[C@@H]4[C@@]5(C)CC[C@H](O)C(C)(C)[C@@H]5CC[C@]43C)[C@H]2C1", "NO"),
    ("Nc1cc(F)ccc1NC(=O)c1ccc(NC(=O)C/C=C/c2cccnc2)cn1", "NO"),
    ("COc1ccc(Oc2ccc(C3CC(c4cc(OC)c(OC)c(OC)c4)=NN3C(C)=O)cc2)cc1 (stereo unspecified)", "NO"),
    ("C=C(C)[C@@H]1CC[C@]2(C(=O)NCCCN(CCC#N)CCC#N)CC[C@]3(C)[C@H](CC[C@@H]4[C@@]5(C)CCC(=O)C(C)(C)[C@@H]5CC[C@]43C)[C@@H]12", "NO"),
    ("CN1CCN(c2ccc(C(=O)/C=C/c3ccc(Cl)c(C(F)(F)F)c3)cc2)CC1", "NO"),
    ("COc1cc(CNC(=O)/C=C/c2ccccc2)ccc1OCC(=O)NO", "NO"),
    ("Cc1ccc(-c2nnc3sc(C4=Cc5ccccc5OC=C4)nn23)cc1", "NO"),
    ("COc1ccc(-c2cc(-c3cccc4ccccc34)n3c(n2)nc2ccccc23)cc1OC", "NO"),
    ("O=C(Nc1cccc(-c2nc(-c3ccc(NC(=O)c4cccs4)cc3Cl)no2)c1)Nc1ccc(NC(=O)C2CC2)c(C(F)(F)F)c1", "YES"),
    ("CC1OC(O[C@@H]2[C@H](O)C(CO)OC(O[C@H]3COC(O[C@H]4CC[C@]5(C)[C@H]6CC[C@]78OC[C@@]9(CCC(C)(C)C[C@H]97)[C@H](O)C[C@@]8(C)[C@]6(C)CC[C@H]5C4(C)C)[C@@H](OC4OC(CO)[C@@H](O)[C@@H](O)[C@@H]4O)[C@@H]3O)[C@H]2OC2OC[C@@H](O)[C@@H](O)[C@@H]2O)[C@@H](O)[C@@H](O)[C@H]1O (stereo partly specified)", "YES"),
    ("Cc1cn(-c2cc(NC(=O)c3cncc(C#Cc4cnc5ccc(O[C@@H]6CCOC6)nn45)c3)cc(C(F)(F)F)c2)cn1", "YES"),
    ("CCOC(=O)C1=C(C)N=C2Sc3ccccc3N2C1c1ccccc1 (stereo unspecified)", "NO"),
    ("O=C1/C(=C/c2ccc([N+](=O)[O-])cc2)SC(=Nc2ccccc2)N1Nc1ccccc1", "NO"),
    ("Cc1ccc(/C=C/CC(=O)Nc2ccc(C(=O)Nc3ccc(F)cc3N)cc2)cn1", "NO"),
    ("CCOc1ccc2nc(NC(=O)Nc3ccccc3C)sc2c1", "NO"),
    ("C=CCn1c(SCC(=O)Nc2cccc(C(=O)/C=C/c3cc(OC)c(OC)c(OC)c3)c2)nc2ccccc2c1=O", "NO"),
    ("COc1ccc(NC2=C(Cl)C(=O)C(C)=C(C)C2=O)cc1", "NO"),
    ("CCOC(=O)c1nn(-c2ccc(C)cc2)c(=O)c2c(N)c(C#N)c(-c3ccc(OC)cc3)cc12", "NO"),
    ("C=C(C)[C@@H]1CC[C@]2(C)[C@H](CC=C3[C@@H]4CC(C)(C)CC[C@]4(C(=O)NCC#CCN4CCN(C)CC4)CC[C@]32C)[C@@]1(C)CCC#N", "NO"),
    ("C=CCn1c(SCC(=O)Nc2cccc(C(=O)/C=C/c3ccc(Br)cc3)c2)nc2ccccc2c1=O", "NO"),
    ("CCOC(=O)c1c(NC(=O)c2cccc(C(F)(F)F)c2)sc2c(CN3CCN(C)CC3)c(O)ccc12", "NO"),
    ("COc1ccccc1/C=C/C=N/NC1=NC2C(S1)N(C)C(=O)N2c1ccccc1 (stereo unspecified)", "NO"),
    ("Cc1nc(-c2cc3ccccc3c(N3CCN(C)CC3)n2)cs1", "NO"),
    ("C[C@@H]1C[C@H]2C(=O)OCC(NC(=O)[C@H](Cc3cc(F)cc(F)c3)NC(=O)Nc3ccc(Cl)cc3F)C(=O)N3CCC[C@H]3C(=O)N3CCCC[C@H]3C(=O)N[C@@H](C)C(=O)N2C1 (stereo partly specified)", "NO"),
    ("COc1ccc(NS(=O)(=O)c2ccc(-c3cnc(C4CC4)o3)cc2)cc1Cl", "NO"),
    ("Cc1ccc(NC(=O)N[C@@H](Cc2cc(F)cc(F)c2)C(=O)NC2C(=O)N3CCC[C@H]3C(=O)N3CCCC[C@H]3C(=O)N[C@@H](C)C(=O)N3C[C@H](C)C[C@H]3C(=O)O[C@H]2C)c(F)c1 (stereo partly specified)", "NO"),
    ("O=c1[nH]c2cc(Cl)ccc2n1C1CCN(c2ccc3nnc(Cl)n3n2)CC1", "NO"),
    ("O=c1oc2ccc(-c3ccc(F)cc3F)cc2c(=O)n1-c1cccc(C(F)(F)F)c1", "YES"),
    ("CCOC(=O)/C(F)=C/C1CC1C1CCCCC1 (stereo unspecified)", "NO"),
    ("C/C(=C(/c1ccc(O)cc1)c1ccc(OCCN2CCCCCC2)cc1)c1ccccc1", "NO"),
    ("CCCCCCCCCC[C@@H](C)[C@@H]1CC(=O)N[C@H]([C@@H](C)O)C(=O)N[C@@H](C)C(=O)N[C@H](C)C(=O)N[C@@H](CCC(N)=O)C(=O)N[C@H](Cc2ccc(O)cc2)C(=O)N[C@@H](C(C)CC)C(=O)O1 (stereo partly specified)", "NO"),
]
